- Tested on: LXRa homodimer (NR concentration 270 nM)
- assay.comment: PBM binding z-score (relative to random genomic background probes); higher = stronger binding; sequences stand for … in GC…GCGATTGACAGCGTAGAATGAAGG
Assign PBM binding z-score to each entry below.
Form rule: numeric answer, no unit written next to it.

*Q* Param readout = PBM binding z-score; param system = LXRa homodimer (NR concentration 270 nM); param query = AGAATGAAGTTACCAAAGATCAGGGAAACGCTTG ; response: value
*A* -0.337

*Q* Param readout = PBM binding z-score; param system = LXRa homodimer (NR concentration 270 nM); param query = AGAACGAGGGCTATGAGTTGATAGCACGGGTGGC ; response: value
*A* -0.658

*Q* Param readout = PBM binding z-score; param system = LXRa homodimer (NR concentration 270 nM); param query = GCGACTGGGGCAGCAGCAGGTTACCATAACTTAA ; response: value
*A* -0.621

*Q* Param readout = PBM binding z-score; param system = LXRa homodimer (NR concentration 270 nM); param query = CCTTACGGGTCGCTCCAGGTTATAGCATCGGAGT ; response: value
*A* -0.172

*Q* Param readout = PBM binding z-score; param system = LXRa homodimer (NR concentration 270 nM); param query = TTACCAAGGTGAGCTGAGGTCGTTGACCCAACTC ; response: value
*A* -0.484

*Q* Param readout = PBM binding z-score; param system = LXRa homodimer (NR concentration 270 nM); param query = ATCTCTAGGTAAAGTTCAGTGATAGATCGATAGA ; response: value
*A* 1.88

*Q* Param readout = PBM binding z-score; param system = LXRa homodimer (NR concentration 270 nM); param query = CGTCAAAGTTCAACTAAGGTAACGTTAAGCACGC ; response: value
*A* 4.8

*Q* Param readout = PBM binding z-score; param system = LXRa homodimer (NR concentration 270 nM); param query = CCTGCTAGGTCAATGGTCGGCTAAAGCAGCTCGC ; response: value
*A* 0.0582

*Q* Param readout = PBM binding z-score; param system = LXRa homodimer (NR concentration 270 nM); param query = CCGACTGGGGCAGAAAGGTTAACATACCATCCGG ; response: value
*A* 0.102

###

- Tested on: PPARg:RXRa DBDmut IVT, anti-RXR (DBD mutation: RXRa K156A/R161A, NR concentration 270 nM, RXRa partner concentration 90 nM)
- assay.comment: PBM binding z-score (relative to random genomic background probes); higher = stronger binding; sequences stand for … in GC…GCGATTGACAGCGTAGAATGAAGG
Kind request: treat 2 as inclusive, so PBM binding z-score at 2 or higher is true, anything lower is false.

*Q* Textbook exercise: given the entry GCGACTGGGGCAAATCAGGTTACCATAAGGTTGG , state whether its PBM binding z-score is greater than or equal to 2.
*A* true

*Q* Textbook exercise: given the entry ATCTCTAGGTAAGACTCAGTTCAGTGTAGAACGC , state whether its PBM binding z-score is greater than or equal to 2.
*A* true

*Q* Textbook exercise: given the entry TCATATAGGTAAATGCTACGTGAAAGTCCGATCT , state whether its PBM binding z-score is greater than or equal to 2.
*A* true

*Q* Textbook exercise: given the entry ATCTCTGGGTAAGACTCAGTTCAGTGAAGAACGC , state whether its PBM binding z-score is greater than or equal to 2.
*A* false

*Q* Textbook exercise: given the entry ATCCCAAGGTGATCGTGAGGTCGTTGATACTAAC , state whether its PBM binding z-score is greater than or equal to 2.
*A* false

###

- Tested on: PPARg:RXRa (NR concentration 180 nM, RXRa partner concentration 90 nM)
- assay.comment: PBM binding z-score (relative to random genomic background probes); higher = stronger binding; sequences stand for … in GC…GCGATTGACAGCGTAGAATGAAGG
reported.endpoint: PBM binding z-score
Form rule: numeric answer, no unit written next to it.

*Q* Param readout = PBM binding z-score; param system = PPARg:RXRa (NR concentration 180 nM, RXRa partner concentration 90 nM); param query = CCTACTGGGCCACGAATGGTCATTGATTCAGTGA ; response: value
*A* 1.18

*Q* Param readout = PBM binding z-score; param system = PPARg:RXRa (NR concentration 180 nM, RXRa partner concentration 90 nM); param query = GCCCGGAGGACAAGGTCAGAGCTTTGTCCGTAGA ; response: value
*A* -0.107

*Q* Param readout = PBM binding z-score; param system = PPARg:RXRa (NR concentration 180 nM, RXRa partner concentration 90 nM); param query = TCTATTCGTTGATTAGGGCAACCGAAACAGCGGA ; response: value
*A* 0.127

*Q* Param readout = PBM binding z-score; param system = PPARg:RXRa (NR concentration 180 nM, RXRa partner concentration 90 nM); param query = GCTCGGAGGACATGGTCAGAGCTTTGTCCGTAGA ; response: value
*A* -0.763

*Q* Param readout = PBM binding z-score; param system = PPARg:RXRa (NR concentration 180 nM, RXRa partner concentration 90 nM); param query = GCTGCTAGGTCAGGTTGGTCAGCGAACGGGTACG ; response: value
*A* 0.347

*Q* Param readout = PBM binding z-score; param system = PPARg:RXRa (NR concentration 180 nM, RXRa partner concentration 90 nM); param query = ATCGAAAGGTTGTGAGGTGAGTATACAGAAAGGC ; response: value
*A* 0.892

*Q* Param readout = PBM binding z-score; param system = PPARg:RXRa (NR concentration 180 nM, RXRa partner concentration 90 nM); param query = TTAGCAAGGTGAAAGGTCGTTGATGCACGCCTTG ; response: value
*A* 8.3

*Q* Param readout = PBM binding z-score; param system = PPARg:RXRa (NR concentration 180 nM, RXRa partner concentration 90 nM); param query = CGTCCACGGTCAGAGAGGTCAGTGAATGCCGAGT ; response: value
*A* 0.382

*Q* Param readout = PBM binding z-score; param system = PPARg:RXRa (NR concentration 180 nM, RXRa partner concentration 90 nM); param query = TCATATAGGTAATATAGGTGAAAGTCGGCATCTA ; response: value
*A* 3.31

*Q* Param readout = PBM binding z-score; param system = PPARg:RXRa (NR concentration 180 nM, RXRa partner concentration 90 nM); param query = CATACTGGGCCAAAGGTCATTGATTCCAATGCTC ; response: value
*A* 11.9

*Q* Param readout = PBM binding z-score; param system = PPARg:RXRa (NR concentration 180 nM, RXRa partner concentration 90 nM); param query = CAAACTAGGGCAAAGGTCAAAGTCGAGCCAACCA ; response: value
*A* 13.2

*Q* Param readout = PBM binding z-score; param system = PPARg:RXRa (NR concentration 180 nM, RXRa partner concentration 90 nM); param query = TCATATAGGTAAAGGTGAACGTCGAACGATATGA ; response: value
*A* 4.94

*Q* Param readout = PBM binding z-score; param system = PPARg:RXRa (NR concentration 180 nM, RXRa partner concentration 90 nM); param query = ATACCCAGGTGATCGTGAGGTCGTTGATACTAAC ; response: value
*A* 0.596

*Q* Param readout = PBM binding z-score; param system = PPARg:RXRa (NR concentration 180 nM, RXRa partner concentration 90 nM); param query = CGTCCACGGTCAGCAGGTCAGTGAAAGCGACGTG ; response: value
*A* 0.155

*Q* Param readout = PBM binding z-score; param system = PPARg:RXRa (NR concentration 180 nM, RXRa partner concentration 90 nM); param query = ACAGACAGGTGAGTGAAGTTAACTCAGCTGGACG ; response: value
*A* 0.529

*Q* Param readout = PBM binding z-score; param system = PPARg:RXRa (NR concentration 180 nM, RXRa partner concentration 90 nM); param query = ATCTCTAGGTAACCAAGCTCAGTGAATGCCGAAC ; response: value
*A* 0.181

*Q* Param readout = PBM binding z-score; param system = PPARg:RXRa (NR concentration 180 nM, RXRa partner concentration 90 nM); param query = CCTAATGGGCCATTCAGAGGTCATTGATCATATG ; response: value
*A* 1.37

*Q* Param readout = PBM binding z-score; param system = PPARg:RXRa (NR concentration 180 nM, RXRa partner concentration 90 nM); param query = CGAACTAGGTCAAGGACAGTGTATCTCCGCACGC ; response: value
*A* 7.62

*Q* Param readout = PBM binding z-score; param system = PPARg:RXRa (NR concentration 180 nM, RXRa partner concentration 90 nM); param query = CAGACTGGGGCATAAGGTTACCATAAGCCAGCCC ; response: value
*A* 3.37

*Q* Param readout = PBM binding z-score; param system = PPARg:RXRa (NR concentration 180 nM, RXRa partner concentration 90 nM); param query = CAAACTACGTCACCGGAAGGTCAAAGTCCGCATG ; response: value
*A* 1.14

*Q* Param readout = PBM binding z-score; param system = PPARg:RXRa (NR concentration 180 nM, RXRa partner concentration 90 nM); param query = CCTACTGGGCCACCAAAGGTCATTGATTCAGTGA ; response: value
*A* 5

*Q* Param readout = PBM binding z-score; param system = PPARg:RXRa (NR concentration 180 nM, RXRa partner concentration 90 nM); param query = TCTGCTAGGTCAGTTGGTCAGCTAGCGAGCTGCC ; response: value
*A* 0.0409

*Q* Param readout = PBM binding z-score; param system = PPARg:RXRa (NR concentration 180 nM, RXRa partner concentration 90 nM); param query = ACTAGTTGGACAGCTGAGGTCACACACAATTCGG ; response: value
*A* 1.65

*Q* Param readout = PBM binding z-score; param system = PPARg:RXRa (NR concentration 180 nM, RXRa partner concentration 90 nM); param query = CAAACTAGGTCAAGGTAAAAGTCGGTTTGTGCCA ; response: value
*A* 8.27

*Q* Param readout = PBM binding z-score; param system = PPARg:RXRa (NR concentration 180 nM, RXRa partner concentration 90 nM); param query = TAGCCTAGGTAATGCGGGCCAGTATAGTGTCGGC ; response: value
*A* 0.000474

*Q* Param readout = PBM binding z-score; param system = PPARg:RXRa (NR concentration 180 nM, RXRa partner concentration 90 nM); param query = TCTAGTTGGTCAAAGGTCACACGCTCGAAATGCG ; response: value
*A* 12

*Q* Param readout = PBM binding z-score; param system = PPARg:RXRa (NR concentration 180 nM, RXRa partner concentration 90 nM); param query = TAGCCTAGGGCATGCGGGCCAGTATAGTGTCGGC ; response: value
*A* -0.378

*Q* Param readout = PBM binding z-score; param system = PPARg:RXRa (NR concentration 180 nM, RXRa partner concentration 90 nM); param query = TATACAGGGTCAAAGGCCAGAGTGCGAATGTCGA ; response: value
*A* 8.23
